Test system: Escherichia coli
Test: Antimicrobial activity against Escherichia coli ATCC 10536 by tube dilution method
Format: functional
Active and inactive are the calls of the source. The rule behind the calls is not given here.
measure name: Activity

The cases that follow already have their Activity on record.
CN[C@@H]1[C@@H](O)[C@@H](O[C@@H]2[C@@H](O)[C@H](O[C@H]3OC(/C=N\N)=CC[C@H]3N)[C@@H](N)C[C@H]2N)OC[C@]1(C)O : inactive
CN[C@@H]1[C@@H](O)[C@@H](O[C@@H]2[C@@H](O)[C@H](O[C@H]3OC(/C=N/N4CCOCC4)=CC[C@H]3N)[C@@H](N)C[C@H]2N)OC[C@]1(C)O : inactive
CN[C@@H]1[C@@H](O)[C@@H](O[C@@H]2[C@@H](O)[C@H](O[C@H]3OC(/C=N\O)=CC[C@H]3N)[C@@H](N)C[C@H]2N)OC[C@]1(C)O : inactive
CN[C@@H]1[C@@H](O)[C@@H](O[C@@H]2[C@@H](O)[C@H](O[C@H]3OC(CNN4CCOCC4)=CC[C@H]3N)[C@@H](N)C[C@H]2N)OC[C@]1(C)O : inactive
CN[C@@H]1[C@@H](O)[C@@H](O[C@@H]2[C@@H](O)[C@H](O[C@H]3OC(CNN)=CC[C@H]3N)[C@@H](N)C[C@H]2N)OC[C@]1(C)O : inactive

Below are some molecules; for each one, tell me its Activity.
1. CN[C@@H]1[C@@H](O)[C@@H](O[C@@H]2[C@@H](O)[C@H](O[C@H]3OC(/C=N\OC)=CC[C@H]3N)[C@@H](N)C[C@H]2N)OC[C@]1(C)O
2. CN[C@@H]1[C@@H](O)[C@@H](O[C@@H]2[C@@H](O)[C@H](O[C@H]3OC(CNOC)=CC[C@H]3N)[C@@H](N)C[C@H]2N)OC[C@]1(C)O

1: inactive; 2: inactive

###

System: Pseudomonas aeruginosa
Assay: Antimicrobial activity against Pseudomonas aeruginosa St. M. 762 by tube dilution method
Format: functional
Hi there, I'd appreciate the recorded MIC for every entry that follows.
Numbers only, in µg/mL.

Use the examples below as a reference point.
CNCC1=CC[C@@H](N)[C@@H](O[C@H]2[C@H](O)[C@@H](O[C@H]3OC[C@](C)(O)[C@H](NC)[C@H]3O)[C@H](N)C[C@@H]2N)O1 : 0.3
CN[C@@H]1[C@@H](O)[C@@H](O[C@@H]2[C@@H](O)[C@H](O[C@H]3OC(CNC(C)(C)C)=CC[C@H]3N)[C@@H](N)C[C@H]2N)OC[C@]1(C)O : 7.5
CN[C@@H]1[C@@H](O)[C@@H](O[C@@H]2[C@@H](O)[C@H](O[C@H]3OC(CNCCO)=CC[C@H]3N)[C@@H](N)C[C@H]2N)OC[C@]1(C)O : 0.3
CN[C@@H]1[C@@H](O)[C@@H](O[C@@H]2[C@@H](O)[C@H](O[C@H]3OC(CO)=CC[C@H]3N)[C@@H](N)C[C@H]2N)OC[C@]1(C)O : 3

Attention now turns to another entry.
Reported MIC of CN[C@@H]1[C@@H](O)[C@@H](O[C@@H]2[C@@H](O)[C@H](O[C@H]3OC(CN)=CC[C@H]3N)[C@@H](N)C[C@H]2N)OC[C@]1(C)O : 0.3

###

System: Serratia marcescens
Test: Antimicrobial activity against Serratia marcescens Dalton by tube dilution method
Type: functional
Activity calls are given as the source filed them. The rule behind the calls is not given here.
measure name: Activity

CN[C@@H]1[C@@H](O)[C@@H](O[C@@H]2[C@@H](O)[C@H](O[C@H]3OC(CNN)=CC[C@H]3N)[C@@H](N)C[C@H]2N)OC[C@]1(C)O : inactive
CN[C@@H]1[C@@H](O)[C@@H](O[C@@H]2[C@@H](O)[C@H](O[C@H]3OC(CNN4CCOCC4)=CC[C@H]3N)[C@@H](N)C[C@H]2N)OC[C@]1(C)O : inactive
CN[C@@H]1[C@@H](O)[C@@H](O[C@@H]2[C@@H](O)[C@H](O[C@H]3OC(CNOC)=CC[C@H]3N)[C@@H](N)C[C@H]2N)OC[C@]1(C)O : inactive
CN[C@@H]1[C@@H](O)[C@@H](O[C@@H]2[C@@H](O)[C@H](O[C@H]3OC(/C=N\O)=CC[C@H]3N)[C@@H](N)C[C@H]2N)OC[C@]1(C)O : inactive
CN[C@@H]1[C@@H](O)[C@@H](O[C@@H]2[C@@H](O)[C@H](O[C@H]3OC(/C=N/N4CCOCC4)=CC[C@H]3N)[C@@H](N)C[C@H]2N)OC[C@]1(C)O : inactive

# per-item lookup of Activity; items listed below
1. CN[C@@H]1[C@@H](O)[C@@H](O[C@@H]2[C@@H](O)[C@H](O[C@H]3OC(/C=N\N)=CC[C@H]3N)[C@@H](N)C[C@H]2N)OC[C@]1(C)O
2. CN[C@@H]1[C@@H](O)[C@@H](O[C@@H]2[C@@H](O)[C@H](O[C@H]3OC(/C=N\OC)=CC[C@H]3N)[C@@H](N)C[C@H]2N)OC[C@]1(C)O

["inactive", "inactive"]

###

Provide the reported LD50 of each item.
Assay: Acute toxicity in albino CF1 mouse
Format: organism-based
Details: in vivo
Numbers only, in mg/kg.

Take a look at these entries with their results.
CN[C@@H]1[C@@H](O)[C@@H](O[C@@H]2[C@@H](O)[C@H](O[C@H]3OC(CO)=CC[C@H]3N)[C@@H](N)C[C@H]2N)OC[C@]1(C)O : 65
CN[C@@H]1[C@@H](O)[C@@H](O[C@@H]2[C@@H](O)[C@H](O[C@H]3OC(CNCCc4ccccc4)=CC[C@H]3N)[C@@H](N)C[C@H]2N)OC[C@]1(C)O : 30
CNCC1=CC[C@@H](N)[C@@H](O[C@H]2[C@H](O)[C@@H](O[C@H]3OC[C@](C)(O)[C@H](NC)[C@H]3O)[C@H](N)C[C@@H]2N)O1 : 50
CN[C@@H]1[C@@H](O)[C@@H](O[C@@H]2[C@@H](O)[C@H](O[C@H]3OC(CN)=CC[C@H]3N)[C@@H](N)C[C@H]2N)OC[C@]1(C)O : 34

// batch mode: one LD50 value per listed entry
1. CN[C@@H]1[C@@H](O)[C@@H](O[C@@H]2[C@@H](O)[C@H](O[C@H]3OC(CNC(C)(C)C)=CC[C@H]3N)[C@@H](N)C[C@H]2N)OC[C@]1(C)O
2. CN[C@@H]1[C@@H](O)[C@@H](O[C@@H]2[C@@H](O)[C@H](O[C@H]3OC(CNCCO)=CC[C@H]3N)[C@@H](N)C[C@H]2N)OC[C@]1(C)O

1. 90
2. 135

###

Test system: Streptococcus pyogenes
Assay: Antimicrobial activity against Streptococcus pyogenes 27 by tube dilution method
Assay type: functional
Calls of active or inactive are those of the source. No cut-off for these calls is given here.
measure name: Activity

Known Activity results, listed for orientation:
CN[C@@H]1[C@@H](O)[C@@H](O[C@@H]2[C@@H](O)[C@H](O[C@H]3OC(/C=N\N)=CC[C@H]3N)[C@@H](N)C[C@H]2N)OC[C@]1(C)O : inactive
CN[C@@H]1[C@@H](O)[C@@H](O[C@@H]2[C@@H](O)[C@H](O[C@H]3OC(CNN4CCOCC4)=CC[C@H]3N)[C@@H](N)C[C@H]2N)OC[C@]1(C)O : inactive
CN[C@@H]1[C@@H](O)[C@@H](O[C@@H]2[C@@H](O)[C@H](O[C@H]3OC(CNOC)=CC[C@H]3N)[C@@H](N)C[C@H]2N)OC[C@]1(C)O : inactive
CN[C@@H]1[C@@H](O)[C@@H](O[C@@H]2[C@@H](O)[C@H](O[C@H]3OC(/C=N\O)=CC[C@H]3N)[C@@H](N)C[C@H]2N)OC[C@]1(C)O : inactive
CN[C@@H]1[C@@H](O)[C@@H](O[C@@H]2[C@@H](O)[C@H](O[C@H]3OC(/C=N/N4CCOCC4)=CC[C@H]3N)[C@@H](N)C[C@H]2N)OC[C@]1(C)O : inactive
CN[C@@H]1[C@@H](O)[C@@H](O[C@@H]2[C@@H](O)[C@H](O[C@H]3OC(CNN)=CC[C@H]3N)[C@@H](N)C[C@H]2N)OC[C@]1(C)O : inactive

Could you now consider this next molecule?
Briefly, Activity measured for CN[C@@H]1[C@@H](O)[C@@H](O[C@@H]2[C@@H](O)[C@H](O[C@H]3OC(/C=N\OC)=CC[C@H]3N)[C@@H](N)C[C@H]2N)OC[C@]1(C)O : inactive

###

Test system: Streptococcus pyogenes
Assay: Antimicrobial activity against Streptococcus pyogenes Alvarez by tube dilution method
Assay type: functional
What MIC was measured for each of the following?

CN[C@@H]1[C@@H](O)[C@@H](O[C@@H]2[C@@H](O)[C@H](O[C@H]3OC(CO)=CC[C@H]3N)[C@@H](N)C[C@H]2N)OC[C@]1(C)O : > 25 µg/mL
CN[C@@H]1[C@@H](O)[C@@H](O[C@@H]2[C@@H](O)[C@H](O[C@H]3OC(CNC(C)(C)C)=CC[C@H]3N)[C@@H](N)C[C@H]2N)OC[C@]1(C)O : > 25 µg/mL
CN[C@@H]1[C@@H](O)[C@@H](O[C@@H]2[C@@H](O)[C@H](O[C@H]3OC(CNCCc4ccccc4)=CC[C@H]3N)[C@@H](N)C[C@H]2N)OC[C@]1(C)O : > 25 µg/mL

Could you report MIC for every entry in the following list?
1. CNCC1=CC[C@@H](N)[C@@H](O[C@H]2[C@H](O)[C@@H](O[C@H]3OC[C@](C)(O)[C@H](NC)[C@H]3O)[C@H](N)C[C@@H]2N)O1
2. CN[C@@H]1[C@@H](O)[C@@H](O[C@@H]2[C@@H](O)[C@H](O[C@H]3OC(CNCCO)=CC[C@H]3N)[C@@H](N)C[C@H]2N)OC[C@]1(C)O
3. CN[C@@H]1[C@@H](O)[C@@H](O[C@@H]2[C@@H](O)[C@H](O[C@H]3OC(CN)=CC[C@H]3N)[C@@H](N)C[C@H]2N)OC[C@]1(C)O

["> 25 µg/mL", "17.5 µg/mL", "7.5 µg/mL"]

Origin of the recorded values: ChEMBL document CHEMBL3244132
